Hello, the source for this data is PubChem BioAssay (NCI), in case you need it.

Listed compounds paired with reported TGI
Tested on: SN12C renal
Experiment: NCI tumour cell line growth inhibition, 48 h
measured-attribute: TGI (µM)

[[record]]
chemical_string = "COc1cc2c(cc1OCCCCOc1cc3c(cc1OC)C(=O)N1CCC[C@H]1C(=O)N3)N=C[C@@H]1CCCN1C2=O"
limit_qualifier = "="
readout_value = 21.4

[[record]]
chemical_string = "CC(C)(CCCCC(C)(C)[N+](C)(C)C)[N+](C)(C)C"
limit_qualifier = ">"
readout_value = 100

[[record]]
chemical_string = "COc1cc([N+](=O)[O-])c(OC)cc1-c1nc2sc(Cl)cn2c1/C=N/NC1=NCCN1"
limit_qualifier = "="
readout_value = 3.52

[[record]]
chemical_string = "C[N+](C)(C)CC(=O)N/N=C/c1ccncc1"
limit_qualifier = ">"
readout_value = 100

[[record]]
chemical_string = "COc1ccc(C(=O)C(c2ccc(OCc3ccccc3)cc2)c2ccc(OCc3ccccc3)cc2)cc1"
limit_qualifier = ">"
readout_value = 100

